# Tested on: Nucleic Acid
# ASSAY EXPLANATION: Antitumor potency on human ovarian 2780 cell lines.
# Format: functional
Hi! Could you tag entries with IC50 below 2 nM as satisfied, and those at or above as not satisfied? Much appreciated.

Reference set, count: 3
Q) Criterion: IC50 strictly below 2 nM. Is it met by C#CCNC1=C(C)C(=O)C2=C(C1=O)C(COC(N)=O)[C@@]1(OC)C3NC3CN21 (some centres not stated) ?
A) not satisfied

Q) Criterion: IC50 strictly below 2 nM. Is it met by CO[C@@]12C(COC(N)=O)C3=C(C(=O)C(C)=C(Nc4ccc5[nH]ccc5c4)C3=O)N1CC1NC12 (some centres not stated) ?
A) not satisfied

Q) Criterion: IC50 strictly below 2 nM. Is it met by CO[C@@]12C(COC(N)=O)C3=C(C(=O)C(C)=C(Nc4ccc([N+](=O)[O-])cc4)C3=O)N1CC1NC12 (some centres not stated) ?
A) satisfied

---
Q) Criterion: IC50 strictly below 2 nM. Is it met by CO[C@@]12C(COC(N)=O)C3=C(C(=O)C(C)=C(OCC4CC4)C3=O)N1CC1NC12 (some centres not stated) ?
A) satisfied

Q) Criterion: IC50 strictly below 2 nM. Is it met by CO[C@@]12C(COC(N)=O)c3c(O)c(/N=C4/C=CN=N4)c(C)c(O)c3N1CC1NC12 (some centres not stated) ?
A) not satisfied

Q) Criterion: IC50 strictly below 2 nM. Is it met by CO[C@@]12C(COC(N)=O)C3=C(C(=O)C(C)=C(OCCSc4ccccc4)C3=O)N1CC1NC12 (some centres not stated) ?
A) satisfied

Q) Criterion: IC50 strictly below 2 nM. Is it met by CO[C@@]12C(COC(N)=O)C3=C(C(=O)C(C)=C(Nc4ccc(Br)cc4)C3=O)N1CC1NC12 (some centres not stated) ?
A) satisfied

Q) Criterion: IC50 strictly below 2 nM. Is it met by CO[C@@]12C(COC(N)=O)C3=C(C(=O)C(C)=C(OCCO)C3=O)N1CC1NC12 (some centres not stated) ?
A) not satisfied

Q) Criterion: IC50 strictly below 2 nM. Is it met by `CO[C@@]12[C@H](COC(N)=O)C3=C(C(=O)C(C)=C(N)C3=O)N1C[C@@H]1N[C@@H]12` ?
A) not satisfied

Q) Criterion: IC50 strictly below 2 nM. Is it met by CO[C@@]12C(COC(N)=O)C3=C(C(=O)C(C)=C(OCC4CCC4)C3=O)N1CC1NC12 (some centres not stated) ?
A) satisfied

Q) Criterion: IC50 strictly below 2 nM. Is it met by CO[C@@]12C(COC(N)=O)C3=C(C(=O)C(C)=C(OCCSSCCO)C3=O)N1CC1NC12 (some centres not stated) ?
A) satisfied

###

# System: Nucleic Acid
# ASSAY EXPLANATION: Antitumor potency on human breast MCF-7 cell lines.
# Type: functional, cell-based
# CONDITION DESCRIPTION: MCF7
Hi! Could you tag entries with IC50 below 3 nM as Satisfied, and those at or above as Not satisfied? Much appreciated.

Q) Criterion: IC50 strictly below 3 nM. Is it met by COCCOCCOC1=C(C)C(=O)C2=C(C1=O)C(COC(N)=O)[C@@]1(OC)C3NC3CN21 (stereo not given in full) ?
A) Not satisfied

Q) Criterion: IC50 strictly below 3 nM. Is it met by C#CCNC1=C(C)C(=O)C2=C(C1=O)C(COC(N)=O)[C@@]1(OC)C3NC3CN21 (stereo not given in full) ?
A) Not satisfied
